System: C. albicans
Square brackets hold non-standard residues; d marks the D form. Peptide text beside a SMILES is read from it.
The entries below are paired with their reported MIC C. albicans.
# output: bare number, implied unit µg/mL

Reference set, count: 2
• CC[C@@H](C)[C@@H](N)C(=O)N[C@H](CCCNC(=N)N)C(=O)N[C@@H](C(=O)N[C@H](CCCCN)C(=O)N[C@@H](C(=O)N[C@H](CCCNC(=N)N)C(N)=O)[C@H](C)CC)[C@H](C)CC [IK6-all D, irikir-NH2] (H-[dI][dR][dI][dK][dI][dR]-NH2; N-terminus assumed) = 15.6
• CC[C@H](C)[C@H](N)C(=O)N[C@@H](CCCNC(=N)N)C(=O)N[C@H](C(=O)N[C@H](CCCCN)C(=O)N[C@H](C(=O)N[C@H](CCCNC(=N)N)C(=O)N[C@H](C(=O)N[C@@H](CCCCN)C(N)=O)[C@@H](C)CC)[C@@H](C)CC)[C@@H](C)CC [IK8-2D, IRIkIrIK-NH2] (H-IRI[dK]I[dR]IK-NH2; N-terminus assumed) = 3.9

Could you now look at the following compound, please?
Exercise: Output measured MIC C. albicans for this item: CC[C@@H](C)[C@@H](N)C(=O)N[C@H](CCCNC(=N)N)C(=O)N[C@@H](C(=O)N[C@H](CCCCN)C(=O)N[C@@H](C(=O)N[C@H](CCCNC(=N)N)C(=O)N[C@@H](C(=O)N[C@H](CCCCN)C(N)=O)[C@H](C)CC)[C@H](C)CC)[C@H](C)CC [IK8-all D, irikirik-NH2] (H-[dI][dR][dI][dK][dI][dR][dI][dK]-NH2; N-terminus assumed)
Key: 3.9

----------
Test: Acute in vivo toxicity, intravenous tail vein injection
Conditions: mouse, mice
Peptide text beside a SMILES is read from it.
endpoint_label: LD50 (mg/kg)
# output: bare number, implied unit mg/kg

• CC[C@H](C)[C@H](N)C(=O)N[C@@H](CCCNC(=N)N)C(=O)N[C@H](C(=O)N[C@@H](CCCCN)C(=O)N[C@H](C(=O)N[C@@H](CCCNC(=N)N)C(=O)N[C@H](C(=O)N[C@@H](CCCCN)C(N)=O)[C@@H](C)CC)[C@@H](C)CC)[C@@H](C)CC [(IRIK)2-NH2] (H-IRIKIRIK-NH2; N-terminus assumed) = 35.2

Could you now look at the following compound, please?
Exercise: Output measured LD50 for this item: CC[C@H](C)[C@H](N)C(=O)N[C@@H](CCCNC(=N)N)C(=O)N[C@H](C(=O)N[C@@H](CCCCN)C(=O)N[C@H](C(=O)N[C@@H](CCCNC(=N)N)C(=O)N[C@H](C(=O)N[C@@H](CCCCN)C(=O)N[C@H](C(=O)N[C@@H](CCCNC(=N)N)C(=O)N[C@H](C(=O)N[C@@H](CCCCN)C(N)=O)C(C)C)[C@@H](C)CC)C(C)C)[C@@H](C)CC)C(C)C [(IRVK)3-NH2] (H-IRVKIRVKIRVK-NH2; N-terminus assumed)
Key: 35.2

----------
System: P. aeruginosa
Details: 18 h
Square brackets hold non-standard residues; d marks the D form. Peptide text beside a SMILES is read from it.
The entries below are paired with their reported MIC P aeruginosa.
# output: bare number, implied unit µg/mL

• CC[C@H](C)[C@H](N)C(=O)N[C@@H](CCCNC(=N)N)C(=O)N[C@H](C(=O)N[C@@H](CCCCN)C(=O)N[C@H](C(=O)N[C@@H](CCCNC(=N)N)C(=O)N[C@H](C(=O)N[C@@H](CCCCN)C(=O)N[C@H](C(=O)N[C@@H](CCCNC(=N)N)C(=O)N[C@H](C(=O)N[C@@H](CCCCN)C(N)=O)C(C)C)[C@@H](C)CC)C(C)C)[C@@H](C)CC)C(C)C [(IRVK)3-NH2] (H-IRVKIRVKIRVK-NH2; N-terminus assumed) = 62.5

Could you now look at the following compound, please?
Exercise: Output measured MIC P aeruginosa for this item: CC[C@@H](C)[C@@H](N)C(=O)N[C@H](CCCNC(=N)N)C(=O)N[C@@H](C(=O)N[C@H](CCCCN)C(=O)N[C@@H](C(=O)N[C@H](CCCNC(=N)N)C(=O)N[C@@H](C(=O)N[C@H](CCCCN)C(=O)N[C@@H](C(=O)N[C@H](CCCNC(=N)N)C(=O)N[C@@H](C(=O)N[C@H](CCCCN)C(N)=O)C(C)C)[C@H](C)CC)C(C)C)[C@H](C)CC)C(C)C [IK12-all D, irvkirvkirvk-NH2] (H-[dI][dR][dV][dK][dI][dR][dV][dK][dI][dR][dV][dK]-NH2; N-terminus assumed)
Key: 15.6

----------
Test system: 5 microorganisms tested (S. epidermidis, S. aureus, E. coli, P. aeruginosa, C. albicans)
Experiment: Mean MIC over the panel and selectivity index (Example 2)
Square brackets hold non-standard residues; d marks the D form. Peptide text beside a SMILES is read from it.
Outcome label depends on GM, geometric mean of MIC values for the 5 microorganisms tested relative to 20 µg/mL: at/above gives 1.0, below gives 0.0.

- CC[C@H](C)[C@H](N)C(=O)N[C@@H](CCCNC(=N)N)C(=O)N[C@H](C(=O)N[C@H](CCCCN)C(=O)N[C@H](C(=O)N[C@H](CCCNC(=N)N)C(=O)N[C@H](C(=O)N[C@@H](CCCCN)C(N)=O)[C@@H](C)CC)[C@@H](C)CC)[C@@H](C)CC [IK8-2D, IRIkIrIK-NH2] (H-IRI[dK]I[dR]IK-NH2; N-terminus assumed): 0.0
- CC[C@H](C)[C@H](N)C(=O)N[C@@H](CCCNC(=N)N)C(=O)N[C@H](C(=O)N[C@@H](CCCCN)C(=O)N[C@H](C(=O)N[C@@H](CCCNC(=N)N)C(=O)N[C@H](C(=O)N[C@@H](CCCCN)C(=O)N[C@H](C(=O)N[C@@H](CCCNC(=N)N)C(=O)N[C@H](C(=O)N[C@@H](CCCCN)C(N)=O)C(C)C)[C@@H](C)CC)C(C)C)[C@@H](C)CC)C(C)C [(IRVK)3-NH2] (H-IRVKIRVKIRVK-NH2; N-terminus assumed): 1.0
- CC[C@@H](C)[C@@H](N)C(=O)N[C@H](CCCNC(=N)N)C(=O)N[C@@H](C(=O)N[C@H](CCCCN)C(=O)N[C@@H](C(=O)N[C@H](CCCNC(=N)N)C(=O)N[C@@H](C(=O)N[C@H](CCCCN)C(=O)N[C@@H](C(=O)N[C@H](CCCNC(=N)N)C(=O)N[C@@H](C(=O)N[C@H](CCCCN)C(N)=O)C(C)C)[C@H](C)CC)C(C)C)[C@H](C)CC)C(C)C [IK12-all D, irvkirvkirvk-NH2] (H-[dI][dR][dV][dK][dI][dR][dV][dK][dI][dR][dV][dK]-NH2; N-terminus assumed): 0.0

Exercise: Could you tell me if the measured GM, geometric mean of MIC values for the 5 microorganisms tested of CC[C@H](C)[C@H](N)C(=O)N[C@@H](CCCNC(=N)N)C(=O)N[C@H](C(=O)N[C@@H](CCCCN)C(=O)N[C@H](C(=O)N[C@@H](CCCNC(=N)N)C(=O)N[C@H](C(=O)N[C@@H](CCCCN)C(N)=O)[C@@H](C)CC)[C@@H](C)CC)[C@@H](C)CC [(IRIK)2-NH2] (H-IRIKIRIK-NH2; N-terminus assumed) reaches 20 µg/mL or more?
Key: 1.0

Exercise: Could you tell me if the measured GM, geometric mean of MIC values for the 5 microorganisms tested of CC[C@@H](C)[C@@H](N)C(=O)N[C@H](CCCNC(=N)N)C(=O)N[C@@H](C(=O)N[C@H](CCCCN)C(=O)N[C@@H](C(=O)N[C@H](CCCNC(=N)N)C(N)=O)[C@H](C)CC)[C@H](C)CC [IK6-all D, irikir-NH2] (H-[dI][dR][dI][dK][dI][dR]-NH2; N-terminus assumed) reaches 20 µg/mL or more?
Key: 1.0

Exercise: Could you tell me if the measured GM, geometric mean of MIC values for the 5 microorganisms tested of CC[C@@H](C)[C@@H](N)C(=O)N[C@H](CCCNC(=N)N)C(=O)N[C@@H](C(=O)N[C@H](CCCCN)C(=O)N[C@@H](C(=O)N[C@H](CCCNC(=N)N)C(=O)N[C@@H](C(=O)N[C@H](CCCCN)C(N)=O)[C@H](C)CC)[C@H](C)CC)[C@H](C)CC [IK8-all D, irikirik-NH2] (H-[dI][dR][dI][dK][dI][dR][dI][dK]-NH2; N-terminus assumed) reaches 20 µg/mL or more?
Key: 0.0
